All values here come from PubChem BioAssay AID463173.

Tested on: Wild type
test-protocol: S. aureus survival, RN4220 and DeltatarO strains – OD600, teichoic acid synthesis inhibitors, primary screen (AID 463173)
conditions-used: S. aureus RN4220 wild type/DeltatarO growth, OD600, 18 h, stronger effect = lower value, screened at 18.75 µg/mL (by protocol)
Hit rate of the full screen: of about 52,000 compounds, about 1,700 (3.3%) were called active. For the sample, actives were picked, then their nearest neighbours and some compounds at random.
recorded-endpoint: survival (%)
# number only, unit % dropped from output

Fill in the blank: the reported survival of CCOc1ccccc1CNS(=O)(=O)c1cnc(N)nc1 is ____. 55

Could you do the same for Cc1ccccc1Cn1nnc2c(=O)[nH]c(C3CCN(C(=O)c4ccccc4)CC3)nc21 , please? 25

Could you do the same for O=C(NCCc1nc2ccccc2n1Cc1ccc(Cl)cc1Cl)c1ccco1 , please? 76

Could you do the same for Cc1ccc(S(=O)(=O)NCCc2nnc3ccc(SCC(=O)Nc4c(C)cc(C)cc4C)nn23)cc1 , please? 86

Could you do the same for O=C(c1ccccc1)N1CCCC(c2nc3c(nnn3Cc3ccc(F)cc3F)c(=O)[nH]2)C1 (configuration not stated) , please? 104

Continuing:
Fill in the blank: the reported survival of Cc1nn(C(=O)c2cccc(F)c2)c(C)c1S(=O)(=O)N1CCCCCC1 is ____. 84

Could you do the same for CCOc1ccccc1NS(=O)(=O)c1cnc(N)nc1 , please? -3

Could you do the same for CCN(CC)c1cc(NC2CCCCC2)c2c3c(onc13)-c1ccccc1C2=O , please? 5

Could you do the same for O=C(c1ccc(Cl)cc1)n1nc(-c2ccccc2)nc1NCc1ccco1 , please? 24

Could you do the same for O=C(c1ccccc1)N1CCC(c2nc3c(nnn3Cc3ccccc3)c(=O)[nH]2)CC1 , please? 0

###

Test system: Wild type
test-protocol: S. aureus survival, RN4220 and DeltatarO strains – OD600, teichoic acid synthesis inhibitors, primary screen (AID 463173)
conditions-used: S. aureus RN4220 wild type/DeltatarO growth, OD600, 18 h, stronger effect = lower value, screened at 18.75 µg/mL (by protocol)
Hit rate of the full screen: of about 52,000 compounds, about 1,700 (3.3%) were called active. The sample holds actives, similar compounds and a random draw of the others, so the mix is not that of the screen.
Reported survival values are given for each entry in this list.
# number only, unit % dropped from output

Guide cases for survival, answers given:
Fill in the blank: the reported survival of CCCOc1ccc(CNC(=O)C2CCN(c3nc4ccccc4nc3C(F)(F)F)CC2)cc1 is ____. 59

Could you do the same for Cc1ccc(-c2nc(N3CCN(c4ccccc4Cl)CC3)c3ccccc3n2)cc1 , please? 62

Could you do the same for CC1CCN(S(=O)(=O)c2ccc3c(c2)N(C)C(=O)CC(=O)N3C)CC1 , please? 74

Continuing:
Fill in the blank: the reported survival of Cc1nn(C(=O)c2ccc(Br)cc2)c(C)c1S(=O)(=O)N1CCOCC1 is ____. 71

Could you do the same for COc1ccc(C(=O)CSc2nc3cc(C(=O)NC4CCCC4)ccc3c(=O)n2CC2CCCO2)cc1 (configuration not stated) , please? 76

Could you do the same for CCc1ccc(C2c3c(-c4ccccc4O)n[nH]c3C(=O)N2Cc2cccnc2)cc1 (configuration not stated) , please? 71

Could you do the same for Cc1ccc(Sc2c(C)nn(C(=O)c3ccc(Br)cc3)c2C)cc1 , please? 13

Could you do the same for COc1ccc(C2c3c(-c4c(C)cc(C)cc4O)n[nH]c3C(=O)N2Cc2ccco2)cc1 (configuration not stated) , please? 15

Could you do the same for CC(C)c1ccc(C2c3c(-c4ccccc4O)n[nH]c3C(=O)N2Cc2ccncc2)cc1 (configuration not stated) , please? 106

Could you do the same for Cc1nn(C(=O)COc2ccccc2Br)c(C)c1Sc1ccccc1 , please? 57

Could you do the same for COC(=O)c1c(NC(=O)c2cc3nc(-c4ccc(Br)cc4)cc(C(F)(F)F)n3n2)sc2c1CCCC2 , please? 82

Could you do the same for CCCOc1ccc(C2c3c(-c4ccccc4O)n[nH]c3C(=O)N2Cc2cccnc2)cc1 (configuration not stated) , please? 3

###

Test system: Wild type
test-protocol: S. aureus survival, RN4220 and DeltatarO strains – OD600, teichoic acid synthesis inhibitors, primary screen (AID 463173)
conditions-used: S. aureus RN4220 wild type/DeltatarO growth, OD600, 18 h, stronger effect = lower value, screened at 18.75 µg/mL (by protocol)
Out of some 52,000 compounds screened, about 1,700 (3.3%) were called active. The entries come from a sample that favours actives as a whole.
recorded-endpoint: survival (%)
# number only, unit % dropped from output

Guide cases for survival, answers given:
So what survival did Cc1ccc2oc3c(c(=O)c2c1)C(c1cccc(O)c1)N(Cc1ccccc1Cl)C3=O (stereo not drawn) get with Wild type? 82

Could you do the same for COc1ccc(NC(=O)c2nc(S(=O)(=O)Cc3ccc(C)cc3)ncc2Cl)cc1 , please? 81

Please find the next compound below.
So what survival did COC(=O)c1cc2oc3ccccc3c2n1Cc1ccc(C)cc1 get with Wild type? 82

###

Reported survival values are given for each entry in this list.
Tested on: Wild type
test-protocol: S. aureus survival, RN4220 and DeltatarO strains – OD600, teichoic acid synthesis inhibitors, primary screen (AID 463173)
conditions-used: S. aureus RN4220 wild type/DeltatarO growth, OD600, 18 h, stronger effect = lower value, screened at 18.75 µg/mL (by protocol)
The whole screen tested about 52,000 compounds, of which about 1,700 (3.3%) were called active. The sample as a whole holds a higher share of actives than the screen did.

Guide cases for survival, answers given:
So what survival did Cc1ccc2cccc(NC(=O)COc3cc(C)c(Cl)c(C)c3)c2n1 get with Wild type? 82% (inactive)

Could you do the same for COc1ccc(CNC(=O)CSc2ncc3c(n2)-c2ccc(Cl)cc2N(Cc2ccccc2)S3(=O)=O)cc1 , please? 22% (inactive)

Could you do the same for Cc1sc2c(c1C)c(=O)n(CCc1ccccc1)c(=O)n2Cc1cccc(F)c1 , please? 9% (active)

Could you do the same for CCC(=O)Nc1nnc(SCCOC)s1 , please? 120% (inactive)

Could you do the same for CCC(C)NC(=O)c1cccc(NC(=O)c2nsc3ccccc23)c1 (stereo unspecified) , please? 76% (inactive)

Could you do the same for Cc1nc2c(C(=O)NCCc3ccc(Cl)cc3)cnn2c(C)c1Cc1ccc(F)cc1 , please? 73% (inactive)

Could you do the same for Cc1ccc(C(C)C)c(OCC(=O)Nc2cccc(NC(=O)c3ccco3)c2)c1 , please? 12% (active)

Could you do the same for Cc1cccn2c(=O)c(C(=O)NCCc3ccc(Cl)cc3)cnc12 , please? 77% (inactive)

Could you do the same for COCCCNC(=O)C1CCN(Cc2cc3ccccc3n2Cc2ccccc2C)CC1 , please? 78% (inactive)

Could you do the same for O=C(COc1ccc(Cl)cc1)NCC(c1ccco1)S(=O)(=O)c1ccc(Cl)cc1 (stereo unspecified) , please? 78% (inactive)

Continuing:
So what survival did COc1ccc(CCNC(=O)c2c[nH]n3c(=O)c(Cc4ccccc4Cl)c(C)nc23)cc1OC get with Wild type? 0% (active)

Could you do the same for CCOc1ccc(-n2c(=O)c3c(C)c(C)sc3n(CC(=O)C(C)(C)C)c2=O)cc1 , please? 125% (inactive)

Could you do the same for CCOC(=O)N1CCc2c(sc(NCc3cccc(F)c3)c2C(=O)Nc2ccc(OC)cc2OC)C1 , please? 68% (inactive)

Could you do the same for CCCc1nc2ccccc2c(NC(=O)CN(CC)CC)c1CC , please? 103% (inactive)

Could you do the same for Cc1cccc(C)c1NC(=O)CSc1ncc2c(n1)-c1ccc(Cl)cc1N(Cc1ccccc1)S2(=O)=O , please? -2% (active)

Could you do the same for CCc1ccc(NC(=O)CSc2nc(C)c(C(=O)Nc3ccccc3)c(-c3ccc(OC)c(OC)c3)c2C#N)cc1 , please? 85% (inactive)

Could you do the same for Cc1c(Cl)cccc1-n1nc(C)c2c(C)cc(=O)n(CC(=O)N3CCCc4ccccc43)c21 , please? 71% (inactive)

Could you do the same for Cc1nc2c(C(=O)NCc3ccccc3Cl)cnn2c(C)c1Cc1ccccc1 , please? 85% (inactive)

###

System: Wild type
test-protocol: S. aureus survival, RN4220 and DeltatarO strains – OD600, teichoic acid synthesis inhibitors, primary screen (AID 463173)
conditions-used: S. aureus RN4220 wild type/DeltatarO growth, OD600, 18 h, stronger effect = lower value, screened at 18.75 µg/mL (by protocol)
The campaign covered roughly 52,000 compounds. About 1,700 (3.3%) were called active. This excerpt belongs to a sample that is enriched for actives.
Sorting guide: entries reporting survival beneath 80% go in the Criterion met pile, the rest go in the Criterion not met pile.

Does the reported survival of COc1ccc(S(=O)(=O)N(Cc2ccccc2)Cc2nc3ccccc3c(=O)[nH]2)cc1 stay below 80%? Criterion not met

Could you do the same for CCN(CC)c1ccc(NC(=O)c2sc3ccccc3c2Cl)cc1 , please? Criterion met

Could you do the same for COc1cc(NC(=O)Cn2c(-c3ccccc3)cc(C(C)=O)c2C)cc(OC)c1 , please? Criterion not met

Next, consider the following compound.
Does the reported survival of CCCC(=O)Nc1ccc(NC(=O)c2sc3ccccc3c2Cl)cc1 stay below 80%? Criterion not met
